src = PubChem BioAssay AID248

Tested on: L1210 leukemia ip in BDF1 mice, survival T/C
Assay: NCI In Vivo Anticancer Drug Screen. Data for tumor model L1210 Leukemia (intraperitoneal) in B6D2F1 (BDF1) mice
Conditions: endpoint: mean survival time; dose: 25.0 mg/kg/injection; schedule: Q04DX002 (ip); vehicle: saline with Tween-80; higher = longer survival
Inconclusive results and toxic doses are left out.
quantity_name: T/C

Task item: Supply reported T/C belonging to this compound: `S=P(S)(Oc1ccc(Cl)cc1Cl)Oc1ccc(Cl)cc1Cl.[Cd]`
Reply: 89 % of control

Task item: State its T/C: `N=C(N)S/C=C/C(=O)O`
Reply: 96 % of control

Task item: Given O=C(O)CCCCCN1C(=O)C2CC=CCC2C1=O (stereo unspecified) , respond with its T/C.
Reply: 98 % of control

Task item: Annotate the compound `Cc1cc(N)c(S)cc1C` with its measured T/C.
Reply: 90 % of control

Task item: Quickly give me recorded T/C for `Cc1csc2ncnc(Cl)c12`
Reply: 98 % of control

Task item: Report T/C, nothing else, for this compound: `COc1ccc(C(=O)c2c[nH]c3c(OC)ccc(O)c23)cc1`
Reply: 91 % of control

====

Tested on: L1210 leukemia ip in BDF1 mice, survival T/C
Assay: NCI In Vivo Anticancer Drug Screen. Data for tumor model L1210 Leukemia (intraperitoneal) in B6D2F1 (BDF1) mice
Settings: endpoint: mean survival time; dose: 200.0 mg/kg/injection; schedule: Q01DX009 (ip); vehicle: Klucel (hydroxypropylcellulose) (HPC); higher = longer survival
Inconclusive results and toxic doses are left out.
Assignment: determine reported T/C for the given compounds.

Task item: State its T/C for this compound: `O=C(O)c1ccc(Oc2ccc(C(=O)O)cc2)cc1`
Reply: 109 % of control

Task item: Please give measured T/C of the following entry: `Cc1ccn(C(N)=O)n1`
Reply: 102 % of control

Task item: Supply measured T/C of `O=C(Oc1cc(OC(=O)c2ccccc2)cc(OC(=O)c2ccccc2)c1)c1ccccc1` in your reply.
Reply: 95 % of control

Task item: Using known records, supply T/C for CC(C)C1=CC23CCC4C(C)(C(=O)O)CCCC4(C)C2CC1C1C(=O)OC(=O)C13 (stereo unspecified)
Reply: 91 % of control

Task item: Give me measured T/C, please, for this compound: CCOC(=O)C1C(C#N)C2OC1C(Cl)C2Cl (stereo unspecified)
Reply: 102 % of control

Task item: Supply measured T/C of `O=C1c2ccccc2C(=O)N1N(c1ccccc1)c1ccccc1` in your reply.
Reply: 106 % of control

Task item: Note T/C for the compound shown: `Cc1ccccc1N=Cc1ccc2c(c1)OCO2`
Reply: 106 % of control

Task item: Read off the recorded T/C for `O=[N+]([O-])c1ccc(N/N=C/c2ccccn2)cc1`
Reply: 95 % of control

Task item: Return the recorded T/C value; entry: O=C(NC(CSC(=O)OCc1ccccc1)C(=O)Oc1ccc([N+](=O)[O-])cc1)OCc1ccccc1 (stereo unspecified)
Reply: 114 % of control

Task item: Identify measured T/C corresponding to `N=c1ncn(Cc2ccccc2)c2nc[nH]c12`
Reply: 101 % of control

Task item: Give reported T/C value for `Cc1ccc(NC(=S)N2CCC(CCCC3CCN(C(=S)Nc4ccc(C)cc4C)CC3)CC2)c(C)c1`
Reply: 95 % of control

====

Give T/C for every item shown.
Test system: L1210 leukemia ip in BDF1 mice, survival T/C
Test: NCI In Vivo Anticancer Drug Screen. Data for tumor model L1210 Leukemia (intraperitoneal) in B6D2F1 (BDF1) mice
Conditions: endpoint: mean survival time; dose: 50.0 mg/kg/injection; schedule: Q01DX009 (ip); vehicle: saline; higher = longer survival
Inconclusive results and toxic doses are left out.

Task item: GET T/C where system = L1210 leukemia ip in BDF1 mice, survival T/C and item = CC(CN1c2ccccc2Sc2cccnc21)N(C)C (configuration not stated)
Reply: 111 % of control

Task item: // fetch T/C; item: `CN(C)CCN=C(Nc1ccccn1)Nc1ccccn1` ; system: L1210 leukemia ip in BDF1 mice, survival T/C
Reply: 100 % of control

Task item: Find T/C for C#CC1(OCC2CO2)CCCCC1 (configuration not stated) on L1210 leukemia ip in BDF1 mice, survival T/C and write it down.
Reply: 97 % of control

Task item: Give T/C for `COc1cc([N+](=O)[O-])c(C)cc1NC(=O)c1ccc(OC)c(OC)c1` tested on L1210 leukemia ip in BDF1 mice, survival T/C.
Reply: 97 % of control

Task item: System L1210 leukemia ip in BDF1 mice, survival T/C. Read-out T/C. Item `Cc1nn(C)c(N)c1C#N` . Report value.
Reply: 97 % of control

Task item: GET T/C | system: L1210 leukemia ip in BDF1 mice, survival T/C | item: `C/C=C/C=N/NC(=O)c1ccc[n+](C)c1`
Reply: 112 % of control

Task item: Supply T/C measured with L1210 leukemia ip in BDF1 mice, survival T/C for Nc1ncnc2c1ncn2C1OC(CF)C(O)C1O (configuration not stated) .
Reply: 101 % of control

====

Tested on: L1210 leukemia ip in BDF1 mice, survival T/C
Assay: NCI In Vivo Anticancer Drug Screen. Data for tumor model L1210 Leukemia (intraperitoneal) in B6D2F1 (BDF1) mice
Conditions: endpoint: mean survival time; dose: 150.0 mg/kg/injection; schedule: Q01DX001 (ip); vehicle: other; higher = longer survival
Method: The antitumor activity of compounds was measured in mice bearing transplantable tumors. Survival or tumor size were measured and the results are expressed as the measurement made in the treated group (T) divided by the measurement made in the vehicle treated control group (C). The tumor model used in this assay is L1210 Leukemia (intraperitoneal) in B6D2F1 (BDF1) mice
Inconclusive results and toxic doses are left out.
quantity_name: T/C

Task item: Please report the measured T/C for `CSc1ncnc2c1ncn2N1CCCC1`
Reply: 97 % of control

Task item: Supply T/C value. Item: `COC(C#N)(Cc1ccccc1)Cc1ccccc1`
Reply: 95 % of control

Task item: Determine from records and report T/C for `CN(C)c1ccc(N=C(C#N)C#N)cc1`
Reply: 95 % of control

Task item: For `CC(C)(C)C(=O)CC(=O)C(C)(C)C.CC(C)(C)C(=O)CC(=O)C(C)(C)C.[Cu]` , write its T/C.
Reply: 94 % of control

====

Test system: L1210 leukemia ip in BDF1 mice, survival T/C
Assay: NCI In Vivo Anticancer Drug Screen. Data for tumor model L1210 Leukemia (intraperitoneal) in B6D2F1 (BDF1) mice
Conditions: endpoint: mean survival time; dose: 400.0 mg/kg/injection; schedule: Q01DX009 (ip); vehicle: saline with Tween-80; higher = longer survival
Toxic doses and inconclusive results are not listed.
Task for the reader: assign each of the following molecules its reported T/C.

Task item: Return T/C (reported value) for this molecule: `Cc1cccc(Cl)c1NC(=O)CCCl`
Reply: 90 % of control

Task item: Specify measured T/C for `CCCCCCCCCCCCN(C)S(=O)(=O)c1ccc(Cl)c(N)c1` .
Reply: 93 % of control

Task item: For the molecule `Nc1ccc(I)c(Cl)c1Cl` , report T/C.
Reply: 102 % of control

====

Test system: L1210 leukemia ip in BDF1 mice, survival T/C
Experiment: NCI In Vivo Anticancer Drug Screen. Data for tumor model L1210 Leukemia (intraperitoneal) in B6D2F1 (BDF1) mice
Settings: endpoint: mean survival time; dose: 200.0 mg/kg/injection; schedule: Q04DX003 (ip); vehicle: saline with Tween-80; higher = longer survival
Toxic doses and inconclusive results are not listed.
Record form. Attribute: T/C. Fill in for each entry.

Task item: Name the recorded T/C of the molecule listed here: `CC(=O)Oc1cccc(/C=C/C(=O)O)c1`
Reply: 102 % of control

Task item: Read the entry `Nc1ccnc(Cl)c1N` and write its reported T/C.
Reply: 95 % of control

Task item: Supply T/C value. Item: `Cc1ccc(NC(=O)Nc2cccc(Cl)c2C)cc1NC(=O)Nc1cccc(Cl)c1C`
Reply: 91 % of control

Task item: Item `CC(=O)Nc1nc(Cl)c([N+](=O)[O-])c(SCc2ccccc2)n1` : provide T/C
Reply: 98 % of control

Task item: Give the reported T/C for this molecule. CC1(C)CC2(OC2c2cccc(Cl)c2)C(=O)c2ccccc21 (stereo not drawn)
Reply: 94 % of control

Task item: Look up and report measured T/C for this entry: `CC(=O)c1ccc(OC(=O)Nc2ccc(Cl)cc2)cc1`
Reply: 108 % of control

Task item: Provide one value: measured T/C of `O=C(Nc1ccccc1)Nc1ccc(C(=O)CCl)cc1`
Reply: 112 % of control

Task item: Tell me its T/C given `O=C(Nc1ccc(Cl)cc1Cl)c1cc(Cl)cc(Cl)c1Br` as the entry.
Reply: 92 % of control

====

Test system: L1210 leukemia ip in BDF1 mice, survival T/C
Assay: NCI In Vivo Anticancer Drug Screen. Data for tumor model L1210 Leukemia (intraperitoneal) in B6D2F1 (BDF1) mice
Details: endpoint: mean survival time; dose: 200.0 mg/kg/injection; schedule: Q04DX003 (ip); vehicle: saline with Tween-80; higher = longer survival
Toxic doses and inconclusive results are not listed.
Would you kindly list T/C for each of these compounds?

Task item: Complete the entry with T/C for `C(=NCCN=Cc1ccccc1)c1ccccc1`
Reply: 95 % of control

Task item: Give the reported T/C for this compound. C[Si](C)(CCCOCC1CO1)O[Si](C)(C)CCCOCC1CO1 (stereo not given)
Reply: 89 % of control

Task item: Tell me T/C reported for `Nc1ncc(Br)c2ccccc12`
Reply: 103 % of control

Task item: Quote T/C reported for `COc1cc(/C=N/OCc2cc3c(cc2Cl)OCO3)cc(OC)c1OC` please.
Reply: 94 % of control

Task item: Find the measured T/C of `CC(=O)CC(=O)C(F)(F)F.CC(=O)CC(=O)C(F)(F)F.CC(=O)CC(=O)C(F)(F)F.[Rh]` and report it.
Reply: 90 % of control

Task item: Output measured T/C for this item: `O=C(N1CCN=C1C(Cl)(Cl)Cl)C(Cl)(Cl)Cl`
Reply: 102 % of control

Task item: Given `CCP(=S)(CC)CCCCCP(=S)(CC)CC` , respond with its T/C.
Reply: 95 % of control

Task item: Return reported T/C. Input compound: COc1ccc(C2C=CC(c3ccccc3)C(c3ccccc3)C2[N+](=O)[O-])cc1OC (stereo not given)
Reply: 94 % of control

Task item: Assign T/C to the following record: C#CC1(OCC(CCl)OC(N)=O)CCCCC1 (stereo not given)
Reply: 100 % of control

Task item: Look up and state reported T/C for `CC(=O)Nc1ccc2scnc2c1`
Reply: 112 % of control

Task item: Return reported T/C. Input compound: `OCc1cc2ccccc2[nH]1`
Reply: 96 % of control

Task item: Give reported T/C value for `O=c1cc(-c2ccccc2)ss1`
Reply: 102 % of control

Task item: For `CCc1cc(C)cc(OC(=O)Nc2ccccc2)c1` , write its T/C.
Reply: 93 % of control

Task item: Name the recorded T/C of the compound listed here: C#CC(NCCC(C)CC(C)(C)C)C(C)C (stereo not given)
Reply: 90 % of control

Task item: Please supply the value of reported T/C for the item `Nc1nc[nH]c(=O)c1NC=O`
Reply: 98 % of control
